Origin of measurements: ChEMBL document CHEMBL1159312

Test system: HCT-116
PROCEDURE TEXT: Cytotoxicity against human HCT116 cells after 72 hrs by MTS method
Type: functional, cell-based
MEASUREMENT CONDITIONS: HCT-116, 72 h
OBSERVABLE: pIC50
Worth noting: pIC50 values are minus log10 of concentrations stated in mol/L.

Recorded result, CC[C@@]1(O)C(=O)OCc2c1cc1n(c2=O)Cc2cc3ccccc3nc2-1 , pIC50: 8.05

Data point: C=C/C(C)=C/C[C@]1(C)[C@H](C)C[C@H](O)[C@]23C(=C[C@@H](OC(=O)C(C)C)C[C@@H]12)[C@@H](OC(C)=O)O[C@H]3OC(C)=O ; pIC50 = 6.15

For C=C/C(C)=C/C[C@]1(C)[C@H](C)C[C@H](O)[C@]23C(=C[C@@H](OC(=O)C(C)CC)C[C@@H]12)[C@@H](OC(C)=O)O[C@H]3OC(C)=O (some centres undefined) the compound record lists pIC50 as 6.60

response.value for C=C/C(C)=C/C[C@]1(C)[C@H](C)C[C@H](O)[C@]23C(=C[C@@H](OC(=O)CCCCC)C[C@@H]12)[C@@H](OC(C)=O)O[C@H]3OC(C)=O (field: pIC50) = 6.59
